- Assayed target: native full length human CB1 receptor (cannabinoid 1 receptor) (human, UniProt P21554 1-472)
- Sequence (P21554 whole entry): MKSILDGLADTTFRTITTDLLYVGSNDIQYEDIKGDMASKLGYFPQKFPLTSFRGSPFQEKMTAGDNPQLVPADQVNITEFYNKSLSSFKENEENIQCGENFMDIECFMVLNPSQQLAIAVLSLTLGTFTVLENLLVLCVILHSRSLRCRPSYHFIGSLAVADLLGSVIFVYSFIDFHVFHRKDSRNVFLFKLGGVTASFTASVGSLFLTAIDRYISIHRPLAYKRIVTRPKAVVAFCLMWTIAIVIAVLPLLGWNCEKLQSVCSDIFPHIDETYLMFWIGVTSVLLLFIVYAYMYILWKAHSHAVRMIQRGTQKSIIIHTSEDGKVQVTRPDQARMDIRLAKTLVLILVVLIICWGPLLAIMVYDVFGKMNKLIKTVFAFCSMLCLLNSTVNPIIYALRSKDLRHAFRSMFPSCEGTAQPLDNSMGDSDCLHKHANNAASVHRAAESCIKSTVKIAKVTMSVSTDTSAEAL
- Assay notes: cell-based or functional assay
The reader will find reported Exp 1 IC50 (nM), cAMP antagonist assay values listed item by item below.
Record the value in nM, omitting the unit from your answer.

Binder | Exp 1 IC50 (nM), cAMP antagonist assay
RY-LC-B12 FACS3 (IgG4 S228P) (antibody, V domains shown) VH: QVQLVQSGAEVKKPGSSVKVSCKASGYEFSYYWMNWVRQAPGQGLEWMGQIYPGDGETKYAQKFQGRVTITADKSTSTAYMELSSLRSEDTAVYYCARSHGNYLPYWGQGTLVTVSS VL: EIVLTQSPATLSLSPGERATLSCRASQSVSSRYLHWYQQKPGQAPRLLIYSTSRLASGIPARFSGSGSGTDFTLTISRLEPEDFAVYYCQQYHRSPPTFGQGTKVEIKR | 40.9

Inquiry: Quick check: Exp 1 IC50 (nM), cAMP antagonist assay of RY-HL-LC-A12 FACS4 (IgG4 S228P) (antibody, V domains shown) VH: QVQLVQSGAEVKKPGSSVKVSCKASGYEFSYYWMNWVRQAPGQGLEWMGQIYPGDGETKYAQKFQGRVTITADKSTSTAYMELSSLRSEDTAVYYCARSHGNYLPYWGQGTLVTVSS VL: EIVLTQSPATLSLSPGERATLSCRASQSVSSRYLHWYQQKPGQAPRLLIYGTSNLASGIPARFSGSGSGTDFTLTISRLEPEDFAVYYCHQYSRSPPTFGQGTKVEIKR ?
Reply text: 48

Inquiry: Quick check: Exp 1 IC50 (nM), cAMP antagonist assay of RY-LC-A10 FACS5 (IgG4 S228P) (antibody, V domains shown) VH: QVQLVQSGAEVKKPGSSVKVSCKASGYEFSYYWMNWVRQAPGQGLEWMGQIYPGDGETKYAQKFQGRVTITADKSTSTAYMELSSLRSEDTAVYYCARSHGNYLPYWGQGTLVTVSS VL: EIVLTQSPATLSLSPGERATLSCRASQSVSSRYLHWYQQKPGQAPRLLIYSTSNRASGIPARFSGSGSGTDFTLTISRLEPEDFAVYYCQQYHRSPPTFGQGTKVEIKR ?
Reply text: 120

Inquiry: Quick check: Exp 1 IC50 (nM), cAMP antagonist assay of RY-HL-LC-C12 FACS4 (IgG4 S228P) (antibody, V domains shown) VH: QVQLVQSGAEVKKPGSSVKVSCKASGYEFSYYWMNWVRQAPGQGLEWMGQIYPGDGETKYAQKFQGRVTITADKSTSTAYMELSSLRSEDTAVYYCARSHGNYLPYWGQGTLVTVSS VL: EIVLTQSPATLSLSPGERATLSCRASQSVSSRYLHWYQQKPGQAPRLLIYSTSRLASGIPARFSGSGSGTDFTLTISRLEPEDFAVYYCHQYHRSPPTFGQGTKVEIKR ?
Reply text: 76.8

The values you see were collected from patent US20260176352A1.
